Data provenance is the supplement of paper PMC9732359.

test: protein stability index of a GFP-peptide fusion (yeast GPS) (PSI 1-4); higher = more stable; sorted into four equal gates, so the index is relative within each strain; details: doa10∆
endpoint: protein stability index
// print number alone

Fill in: protein stability index of ITHAHSLSNPNSTATMQ [PGD1] is ___
2.8

Fill in: protein stability index of YDSDSDSSVEDSTDNEN [LIN1] is ___
3.08

Fill in: protein stability index of PETCLFVSYFGKQIKST [YML103C/NUP188] is ___
2.61

Fill in: protein stability index of ISGYKKFSSTSRYMQYN [RPT1] is ___
1.26

Fill in: protein stability index of KPKAVARKSKEEREAAA [RPC53] is ___
2.57

Fill in: protein stability index of GVARNFHFAIEQISNNS [SIN4] is ___
2.8

Fill in: protein stability index of AAVVKTSSRQTVFLPMV [RPT5] is ___
3.02

Fill in: protein stability index of DMENMADEQKRSTDVWY [ARP7] is ___
2.35

Fill in: protein stability index of PGRLDRKIEFPSLRDRR [RPT3] is ___
3.35

Fill in: protein stability index of ETGYMSRRLMKSLEDLS [RPO31] is ___
2.45

Fill in: protein stability index of LYVDSESTSSTEEVEAL [MTW1] is ___
2.92

Fill in: protein stability index of YSALNSTYLPKLISAFD [RRP42] is ___
2.69

Fill in: protein stability index of GSKQADRMAKYLHIRDK [PGD1] is ___
3.08

Fill in: protein stability index of KKPGKIAKPNTANAKHT [SMB1] is ___
2.87

Fill in: protein stability index of GDFGGWFCPCHGSHYDI [RIP1] is ___
2.87

Fill in: protein stability index of LESSITDAGVLALKLEL [YJL039C/NUP192] is ___
1.57

Fill in: protein stability index of IAGVITRSKRLSQVYPT [CSN12] is ___
2.91

Fill in: protein stability index of GTIKKIEQFAMRRNSKI [POP5] is ___
2.79

Fill in: protein stability index of DRRKARKAYFTAPSSQR [RPL26A] is ___
2.59

Fill in: protein stability index of GAQFSRSYDLTRHQNTI [RPN4] is ___
1.16

Fill in: protein stability index of GDDEATEIISTLSNGLI [BRR2] is ___
3.32

Fill in: protein stability index of QETQHGNITRGLAVGLA [RPN2] is ___
3.08

Fill in: protein stability index of VIMALMLMSKIGDVDGL [POP5] is ___
1.49

Fill in: protein stability index of FEEDEKNSDVWFLDHNY [RPN8] is ___
2.7

Fill in: protein stability index of NAKKRVFKTHSYRGVDL [RPS15] is ___
2.93

Fill in: protein stability index of TPLFPIDRNSTILYLNV [IRR1] is ___
2.71

Fill in: protein stability index of IMKIGGIKLQMQNSKVE [SMC4] is ___
2.11

Fill in: protein stability index of ALECRLASAIASGLLRA [CSN12] is ___
1.58

Fill in: protein stability index of PGPRLLYENIASSPIIL [RPN10] is ___
2.1

Fill in: protein stability index of ISKLFLRGDSVIVVLKT [SMD2] is ___
2.87

Fill in: protein stability index of RDVRDQAAGGLSIRLTN [RPN8] is ___
2.89

----------
test: protein stability index of a GFP-peptide fusion (yeast GPS) (PSI 1-4); higher = more stable; sorted into four equal gates, so the index is relative within each strain; details: doa10∆
endpoint: protein stability index
// print number alone

Fill in: protein stability index of KLQENRTLLTEEIEPKL [SMC2] is ___
2.91

Fill in: protein stability index of QFASPVRWIETQDVFLK [FAS2] is ___
2.3

Fill in: protein stability index of HKDSFYDRATLTQLLSM [RPO31] is ___
1.79

Fill in: protein stability index of QLDEFKNKYLKDVLAQT [SWP82] is ___
2.52

Fill in: protein stability index of RAGQRTRFKAVVVVGDS [RPS2] is ___
2.07

Fill in: protein stability index of QRFVGHKSDVMSVDIDK [ASC1] is ___
3.04

Fill in: protein stability index of VDVLVISSHSHPVSLIS [RRP42] is ___
1.5

Fill in: protein stability index of LGVEDITLIDSASLHLN [RET1] is ___
2.03

----------
I'd be grateful if you could share measured protein stability index for these entries.
assay: protein stability index of a GFP-peptide fusion (yeast GPS) (PSI 1-4); higher = more stable; sorted into four equal gates, so the index is relative within each strain; settings: pdr5∆
// print number alone

Fill in: protein stability index of SCISISDIISMLQISDD [RRI2] is ___
1.34

Fill in: protein stability index of LRLPFSAAMSIDKLSDV [PRP8] is ___
2.42

Fill in: protein stability index of ITHTENYNDLIVNYEDL [BRN1] is ___
2.94

Fill in: protein stability index of IEDVTPVPSDSTRKKGG [RPS14B] is ___
3.15

Fill in: protein stability index of NYPQLTEDILKEISTRV [YCS4] is ___
3.11

Fill in: protein stability index of ATALQTCAGGRLFNVVV [SMC2] is ___
2.9

Fill in: protein stability index of VLTRMDEDRSKKEEELG [SNF2] is ___
3.22

Fill in: protein stability index of MDSIIPAGVKLDDLQVI [PGD1] is ___
3.05

Fill in: protein stability index of AEWSLVRIYSGLLKRGD [SNU114] is ___
3.27

Fill in: protein stability index of NFLQESYEVEHVIQIPL [TAF14] is ___
2.94

Fill in: protein stability index of FERFPSPSTSANVPSTA [RPN4] is ___
1.92

Fill in: protein stability index of QVLLDEEYKQLVKDRKF [RPO21] is ___
3.28

Fill in: protein stability index of RMAKYLNNTHVISSGPL [RPC53] is ___
2.91

Fill in: protein stability index of QLAGKSGEDTNVGLPIL [YOR098C/NUP1] is ___
3.32

Fill in: protein stability index of KHVGFELLSMGNAKESK [SRP72] is ___
2.03

Fill in: protein stability index of LFNESFIMASVGKYDKA [SRP72] is ___
2.85

Fill in: protein stability index of ISVARKIYDAFPQTAML [DIS3] is ___
2.4

Fill in: protein stability index of PLQNNLPELWALLNFVL [SNF2] is ___
2.64

Fill in: protein stability index of TNVRLYSLLLASKGIDR [ECM29] is ___
2.79

Fill in: protein stability index of KKGKSSDKDATTDGKND [RPN1] is ___
3.28

Fill in: protein stability index of ENSAVAAKEGLALSSNI [COR1] is ___
2.66

Fill in: protein stability index of PINLQNGEEDEVALFSQ [YLR335W/NUP2] is ___
3.39

Fill in: protein stability index of SDGEDGHIPWHILAVKK [SSN2] is ___
2.97

Fill in: protein stability index of ESKLSLETLFNRWHSES [FAS2] is ___
3.24

Fill in: protein stability index of SKLRNNIRSQLLSENRS [SRP54] is ___
2.58

Fill in: protein stability index of TRAMEYLKFRELPAGQN [RPB2] is ___
2.75

Fill in: protein stability index of SMVYSNVGELIEKNVME [RRP4] is ___
2.66

Fill in: protein stability index of TMRRQKLTILQEGIEAI [RET1] is ___
2.67

Fill in: protein stability index of YEEFRDVAIENNTLSRY [RRP43] is ___
3.25

Fill in: protein stability index of RNLNNLKQENAYLLIRR [RPB8] is ___
3.16

Fill in: protein stability index of ADLRPLQIKSIREIDVT [RPS7B] is ___
2.72
